- Test system: Plasmodium falciparum NF54 stage IV/V gametocytes
- assayDetails: % inhibition of gametocyte viability (ATP bioluminescence); higher = more inhibition
- testSettings: 1 µM; 24 h
compounds and their reported % inhibition of gametocyte viability

Study these solved cases before continuing.
# compound, assayTarget, % inhibition of gametocyte viability
measured = [
    ("CC(C)(C)c1cccc(-c2nc3cc(C(=N)N)ccc3[nH]2)c1O", "Plasmodium falciparum NF54 stage IV/V gametocytes", "0.668%"),
    ("CC(=O)O[C@H]1C[C@@]2(C)[C@@H](C[C@@H](O)[C@H]3[C@@]4(C)CC[C@@H](O)[C@@H](C)[C@@H]4CC[C@@]32C)/C1=C(\\CCC=C(C)C)C(=O)O", "Plasmodium falciparum NF54 stage IV/V gametocytes", "< 0%"),
    ("Nc1nnc(-c2ccc(Cl)cc2)s1", "Plasmodium falciparum NF54 stage IV/V gametocytes", "< 0%"),
    ("CCCCCOc1ccc(/C=C2\\Oc3c(ccc(O)c3O)C2=O)c(O)c1", "Plasmodium falciparum NF54 stage IV/V gametocytes", "< 0%"),
    ("CC(=O)N1c2ccccc2NC2=C(C(=O)CC(C)(C)C2)C1c1ccc(OCc2ccccc2)cc1 (centres undefined)", "Plasmodium falciparum NF54 stage IV/V gametocytes", "1.11%"),
    ("CCCC(=O)OCCc1ccccc1", "Plasmodium falciparum NF54 stage IV/V gametocytes", "< 0%"),
    ("O=S(=O)(NCB(O)O)c1ccc(-c2nnn[nH]2)cc1C(F)(F)F", "Plasmodium falciparum NF54 stage IV/V gametocytes", "< 0%"),
    ("Cc1onc(-c2ccccc2Cl)c1C(=O)N[C@@H]1C(=O)N2[C@@H]1SC(C)(C)[C@@H]2C(=O)O", "Plasmodium falciparum NF54 stage IV/V gametocytes", "< 0%"),
]

Attention now shifts to the item below.
Entry under review: CC1CN(c2ncnc3c2c(-c2ccccc2)cn3-c2ccc(F)cc2)CC(C)O1 (centres undefined) . Reported % inhibition of gametocyte viability?
< 0%

====

compounds and their reported % inhibition of gametocyte viability
- System: Plasmodium falciparum NF54 stage IV/V gametocytes
- assayDetails: % inhibition of gametocyte viability (PrestoBlue); higher = more inhibition
- testSettings: 5 µM; 48 h
Answer in %, number only, no unit symbol.

Study these solved cases before continuing.
# compound, unitAbbreviation, % inhibition of gametocyte viability
records = [
    ("CCCC(=O)OCCc1ccccc1", "%", 4.24),
    ("CC(C)=CCC/C(C)=C/CNCCNC1C2CC3CC(C2)CC1C3 (stereo not given)", "%", 89.7),
    ("Cc1[nH]c2ccccc2c1CC(=O)N[C@@H](Cc1ccccc1)C(=O)N(C)c1ccccc1", "%", 23.6),
]

Entry under review: `Cc1ccccc1NC(=O)Nc1cccc([N+](=O)[O-])c1` . Reported % inhibition of gametocyte viability?
2.93

====

compounds and their reported % viability of CHO cells
- Tested on: CHO
- assayDetails: % viability of CHO cells (MTT); higher = less toxic
- testSettings: 20 µM; 48 h
Answer in %, number only, no unit symbol.

# compound, assayTarget, % viability of CHO cells (%)
rows = [
    ("Cc1cc(CCOc2c(C)cc(-c3nnn(C)n3)cc2C)on1", "CHO", 105),
]

Entry under review: O=P(O)(O)C(CCCc1cccc(Oc2ccccc2)c1)S(=O)(=O)O (stereo unspecified) . Reported % viability of CHO cells?
109

Entry under review: CCOC(=O)Nc1cc(NC(C)CC(C)CN(CC)CC)c2nc(-c3ccccc3)c(-c3ccccc3)nc2n1 (stereo unspecified) . Reported % viability of CHO cells?
116

Entry under review: CC(C)=CCC/C(C)=C/CNCCNC1C2CC3CC(C2)CC1C3 (stereo unspecified) . Reported % viability of CHO cells?
65.4

Entry under review: `CN1c2ccc(Cl)cc2N(c2ccccc2)C(=O)c2cn(Cc3ccc(CN4CCOCC4)cc3)nc21` . Reported % viability of CHO cells?
69.1

Entry under review: `CC[C@@H]1C(=O)OC[C@@H]1Cc1cncn1C` . Reported % viability of CHO cells?
110

Data provenance is the supplement of paper PMC7801607.
